Exercise: state measured kon for each of the binders provided.
- experimentalTarget: T1, recombinant human CD33 protein (Sino Biologicals) (human, UniProt P20138 18-259)
- T1 construct: Bought protein; also called recombinant CD33
- T1 sequence (P20138 18-259 limits assumed): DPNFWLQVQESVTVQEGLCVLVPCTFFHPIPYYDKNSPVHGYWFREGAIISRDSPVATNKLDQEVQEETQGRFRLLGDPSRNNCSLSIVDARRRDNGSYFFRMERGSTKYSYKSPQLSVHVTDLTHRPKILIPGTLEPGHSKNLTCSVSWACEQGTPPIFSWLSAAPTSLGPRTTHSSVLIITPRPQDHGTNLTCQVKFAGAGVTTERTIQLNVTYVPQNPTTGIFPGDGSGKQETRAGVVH
- protocol: BLI (ForteBio), antibody on anti-human Fc sensor, CD33 10 nM
Supply the numeric figure in M⁻¹ s⁻¹, leaving out any unit text.

So what's the measured kon for this one? anti-CD33 antibody 6C7H5 (antibody, V domains shown, Humanized 6C7; VH/VL only; also called parental humanized antibody) VH: EVQLVESGGGLVQPGGSLRLSCAGSGFTFSNYCMNWVRQAPGKGLEWVAEIRLKSNNYVTNYAASVKGRFTISRDDSKNSVYLQMNSLKTEDTGVYYCTRDGYYVPFAYWGQGTLVTVSS VL: QLVLTQSPSASASLGASVKLTCTLSSQHSTYTIEWYQQQPEKGPRYLMELKKDGSHSTGDGIPDRFSGSSSGAERYLTISSLQSEDEADYYCGVGDTIKEQFVYVFGGGTKLTVL
275000

So what's the measured kon for this one? anti-CD33 antibody 6C7H30 (antibody, V domains shown, VH/VL only) VH: EVQLVESGGGLVQPGGSLRLSCAGSGFTFSNYWMNWVRQAPGKGLEWVAEIRLKSNNYVTNYAASVKGRFTISRDDSKNSVYLQMNSLKTEDTGVYYCTRAGYYVPFAYWGQGTLVTVSS VL: QLVLTQSPSASASLGASVKLTCTLSSQHSTYTIEWYQQQPEKGPRYLMELKKEGSHSTGDGIPDRFSGSSSGAERYLTISSLQSEDEADYYCGVGDTIKEQFVYVFGGGTKLTVL
4.65e+06
